Tested on: Bacillus anthracis
assay-overview: Antimicrobial activity against Bacillus anthracis Sterne by CLSI method
Type: functional
stated-conditions: Bacillus anthracis, Sterne; read-out: MIC
Assign labels as follows, please: 1 for MIC below 1 µg/mL; 0 for MIC equal to or exceeding 1 µg/mL.

compound | discrete-label
c1cc2cc(-c3ccc(-c4cc5ccc(C6=NCCCN6)cc5o4)cc3)[nH]c2cc1C1=NCCCN1 | 0
c1cc2cc(-c3ccc(-c4nc5ccc(C6=NCCN6)cc5[nH]4)cc3)[nH]c2cc1C1=NCCN1 | 0
FC1CN=C(c2ccc3cc(-c4ccc(-c5cc6ccc(C7=NCC(F)CN7)cc6o5)cn4)[nH]c3c2)NC1 (stereo not drawn) | 1
OC1CN=C(c2ccc3cc(-c4ccc(-c5cc6ccc(C7=NCC(O)CN7)cc6o5)s4)[nH]c3c2)NC1 (stereo not drawn) | 0
c1cc2cc(-c3ccc(-c4cc5ccc(C6=NCCCN6)cc5o4)s3)[nH]c2cc1C1=NCCCN1 | 1
c1cc2cc(-c3ccc(-c4cnc(N5CCCC5)nc4)cc3)[nH]c2cc1C1=NCCCN1 | 1
c1cc2cc(-c3ccc(-c4cc5ccc(C6=NCCN6)cc5o4)cc3)[nH]c2cc1C1=NCCN1 | 1
c1cc2cc(-c3ccc(-c4nc5ccc(C6=NCCCN6)cc5[nH]4)cc3)[nH]c2cc1C1=NCCCN1 | 1

====

Tested on: HeLa
assay-overview: Cytotoxicity against human HeLa cells by MTS assay
Type: cell-based
stated-conditions: hela
Assign labels as follows, please: 1 (yes) for CC50 below 20 µg/mL; 0 (no) for CC50 equal to or exceeding 20 µg/mL.

compound | discrete-label
c1cc2cc(-c3ccc(-c4cc5ccc(C6=NCCN6)cc5[nH]4)cc3)[nH]c2cc1C1=NCCN1 | 0 (no)
c1cc2cc(-c3ccc(-c4cc5ccc(C6=NCCCN6)cc5o4)cn3)[nH]c2cc1C1=NCCCN1 | 1 (yes)
CC1CNC(c2ccc3cc(-c4ccc(-c5cc6ccc(C7=NC(C)CN7)cc6o5)cc4)[nH]c3c2)=N1 (stereo in doubt; P6b) | 1 (yes)
c1cc2cc(-c3ccc(-c4cn5ccc(C6=NCCCN6)cc5n4)cc3)[nH]c2cc1C1=NCCCN1 | 0 (no)

====

Tested on: Enterococcus faecalis
assay-overview: Antimicrobial activity against vancomycin-resistant Enterococcus faecalis ATCC 51575 by CLSI method
Format: functional
stated-conditions: Enterococcus faecalis, ATCC 51575; read-out: MIC

compound | output-unit | MIC
c1cc2cc(-c3ccc(-c4cc5ccc(C6=NCCCN6)cc5o4)cc3)[nH]c2cc1C1=NCCCN1 | µg/mL | 0.39
COC1CN=C(c2ccc3cc(-c4ccc(-c5cc6ccc(C7=NCC(OC)CN7)cc6o5)cc4)[nH]c3c2)NC1 (stereo not drawn) | µg/mL | 0.63
c1cc2cc(-c3ccc(-c4cnc(N5CCCC5)nc4)cc3)[nH]c2cc1C1=NCCCN1 | µg/mL | 5
c1cc2oc(-c3ccc(-c4cc5ccc(C6=NCCCN6)cc5[nH]4)cc3)cc2cc1C1=NCCCN1 | µg/mL | 0.08
c1cc2cc(-c3ccc(-c4cc5ccc(C6=NCCN6)cc5[nH]4)cc3)[nH]c2cc1C1=NCCN1 | µg/mL | 0.16
OC1CN=C(c2ccc3cc(-c4ccc(-c5cc6ccc(C7=NCC(O)CN7)cc6o5)cc4)[nH]c3c2)NC1 (stereo not drawn) | µg/mL | 0.31
c1cc2cc(-c3ccc(-c4nc5ccc(C6=NCCN6)cc5[nH]4)cc3)[nH]c2cc1C1=NCCN1 | µg/mL | 0.63
FC1CN=C(c2ccc3cc(-c4ccc(-c5cc6ccc(C7=NCC(F)CN7)cc6o5)s4)[nH]c3c2)NC1 (stereo not drawn) | µg/mL | 0.63
